Ref: ChEMBL document CHEMBL1151697

Entries with reported Ki on Histamine H3 receptor (Rattus norvegicus)
Sequence (Q9QYN8 whole entry): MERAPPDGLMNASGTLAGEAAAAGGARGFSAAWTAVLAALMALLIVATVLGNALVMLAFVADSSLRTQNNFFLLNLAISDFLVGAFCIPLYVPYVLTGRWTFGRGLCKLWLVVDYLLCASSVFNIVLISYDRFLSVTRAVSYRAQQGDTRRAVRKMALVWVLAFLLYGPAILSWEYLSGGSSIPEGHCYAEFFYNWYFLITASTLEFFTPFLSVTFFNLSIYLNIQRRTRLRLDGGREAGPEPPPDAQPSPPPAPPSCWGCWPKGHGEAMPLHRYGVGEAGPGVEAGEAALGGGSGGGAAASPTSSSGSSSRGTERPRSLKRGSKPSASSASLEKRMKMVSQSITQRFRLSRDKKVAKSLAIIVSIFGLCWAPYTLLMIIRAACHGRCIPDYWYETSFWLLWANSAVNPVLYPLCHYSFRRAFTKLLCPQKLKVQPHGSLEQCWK

Compound: CC1CC(C)CN(Cc2ccc(-c3ccc(CN4CCCCC4)cc3)cc2)C1 (configuration not stated)
Measurement Units: nM
Ki: 2.4

Compound: CCCN(CCC)Cc1ccc(-c2ccc(CN(CCC)CCC)cc2)cc1
Measurement Units: nM
Ki: 3.16

Compound: c1cc(-c2ccc(CN3CCOCC3)cc2)ccc1CN1CCCCC1
Measurement Units: nM
Ki: 15.5

Compound: CCN(CC)Cc1ccc(-c2ccc(CN(CC)CC)cc2)cc1
Measurement Units: nM
Ki: 2.4

Compound: CN(Cc1ccccc1)Cc1ccc(-c2ccc(CN3CCCCC3)cc2)cc1
Measurement Units: nM
Ki: 14.1

Compound: CN(C)CCc1ccc(-c2ccc(CCN(C)C)cc2)cc1
Measurement Units: nM
Ki: 19.5

Compound: N#Cc1ccc(OCc2ccc(-c3ccc(CN4CCCCC4)cc3)cc2)cc1
Measurement Units: nM
Ki: 70.8

Compound: CCCN(CCC)Cc1ccc(-c2ccc(CCN3CCCCC3)cc2)cc1
Measurement Units: nM
Ki: 10.7

Compound: CCCN(CCC)Cc1ccc(-c2ccc(CN3CCCCC3)cc2)cc1
Measurement Units: nM
Ki: 3.16

Compound: CN(Cc1ccc(-c2ccc(CN3CCCCC3)cc2)cc1)C1CCCCC1
Measurement Units: nM
Ki: 7.41

Compound: CCCN(CCC)C(=O)Cc1ccc(-c2ccc(CN3CCCCC3)cc2)cc1
Measurement Units: nM
Ki: 53.7

Compound: CN(C)Cc1ccc(-c2ccc(CN3CCCCC3)cc2)cc1
Measurement Units: nM
Ki: 1.32

Compound: CC1CCN(CCc2ccc(-c3ccc(CCN4CCC(C)CC4)cc3)cc2)CC1
Measurement Units: nM
Ki: 55

Compound: CCCN(CCC)Cc1ccc(-c2ccc(CC(=O)N3CCCCC3)cc2)cc1
Measurement Units: nM
Ki: 178

Compound: c1cc(-c2ccc(CN3CCCCC3)cc2)ccc1CCN1CCCCC1
Measurement Units: nM
Ki: 8.32

Compound: CC1CCN(Cc2ccc(-c3ccc(CN4CCCCC4)cc3)cc2)CC1
Measurement Units: nM
Ki: 5.75

Compound: CCN(CC)Cc1ccc(-c2ccc(CN3CCCCC3)cc2)cc1
Measurement Units: nM
Ki: 2.57
